Catalogue of solubility at 3 min values
Assay: Solubilities of salts in three solvents (Example 2)
Settings: 0.1 M hydrochloric acid, 20 °C, pH 0.6, simulated gastric fluid, thermodynamic from solid
recorded_endpoint: solubility at 3 min (µg/mL)

| structure | recorded_endpoint | scale_unit | observed |
| --- | --- | --- | --- |
| Br.COC(=O)C1(N2Cc3c(ccc(Cl)c3Cl)N=C2N)CC1 | solubility at 3 min | µg/mL | 6430 |
| Br.O=C1NC2=Nc3ccc(Cl)c(Cl)c3CN2C12CC2 | solubility at 3 min | µg/mL | 35 |
| Cl.O=C1CN2Cc3c(ccc(Cl)c3Cl)N=C2N1 | solubility at 3 min | µg/mL | 169 |
| CC(C)(C(=O)[O-])N1Cc2c(ccc(Cl)c2Cl)N=C1N.[Na+] | solubility at 3 min | µg/mL | 46 |
| Br.CC1(C)C(=O)NC2=Nc3ccc(Cl)cc3CN21 | solubility at 3 min | µg/mL | 215 |

Recorded values, source patent US8304420B2.
